// cytotoxicity at 70.5 h lookup, one value per entry
ASSAY TEXT: Human HepG2 cell viability assay in 384 well format
Assay type: toxicity, cell-based
Set-up: dose 125 nL, time 70.5 hour; concentration not given beside the values
CONDITION SET: HepG2 cells, read-out: Inhibition
Response body: numeric value in %, unit text excluded.

Solved cases below.
// sample Cc1nc2c(c(NC3CC3)n1)CCN(C(=O)CCO)CC2 , its cytotoxicity at 70.5 h was -4.49

// sample O=C1NCC(C(=O)Nc2ncc(Cc3ccccc3F)s2)N1 (configuration not stated) , its cytotoxicity at 70.5 h was 3.26

// sample CO[C@@H]1CC[C@H]2[C@H]1OCCN2CC1CCOCC1 , its cytotoxicity at 70.5 h was -2.79

// sample CC(=O)NCCc1ccc(S(=O)(=O)Nc2ccc(C)cc2F)s1 , its cytotoxicity at 70.5 h was -2.14

// sample Cc1cccc(CN(Cc2cccnc2)C2CC(C)(C)NC(C)(C)C2)n1 , its cytotoxicity at 70.5 h was -1.41

New cases:
// sample Cc1nc(-c2ccccc2)cc(C2CCNCC2)n1 , its cytotoxicity at 70.5 h was 7.58

// sample O=C(c1nsc(Cl)c1Cl)N1CCc2nc3sccc3c(=O)n2CC1 , its cytotoxicity at 70.5 h was -3.17

// sample CCCN(C)c1ncc2c(n1)N(C)CCN(CC1CC1)C2=O , its cytotoxicity at 70.5 h was -1.69

// sample CN(C)CCNC(=O)C1Cc2nc(-c3ccccc3)sc2N1CC1CC1 (configuration not stated) , its cytotoxicity at 70.5 h was -11

// sample COCC(=O)NCC1Cn2nnc(-c3ccoc3)c2CO1 (configuration not stated) , its cytotoxicity at 70.5 h was -6.95

// sample COCCN(c1cc(C)nc2nc(C(F)(F)F)nn12)C1CCCC1 , its cytotoxicity at 70.5 h was 12.8

// sample Cn1ccnc1CN1CCCN(C(=O)c2ccc3cc[nH]c3c2)CC1 , its cytotoxicity at 70.5 h was -7.08

// sample O=C(C1CCCCN1Cc1nc(-c2ccco2)no1)N1CCCC1 (configuration not stated) , its cytotoxicity at 70.5 h was 4.12

// sample O=C(NCCn1cccc1)C1CCCOC1 (configuration not stated) , its cytotoxicity at 70.5 h was -5.7

// sample N#Cc1cccc(N2CC3(CCN(C(=O)c4cccnc4)C3)CC2=O)c1 (configuration not stated) , its cytotoxicity at 70.5 h was -0.309

// sample CCN1CCc2c(sc3c2C(=O)NC(/C=C\c2ccccc2)N3)C1 (configuration not stated) , its cytotoxicity at 70.5 h was 16.4

// sample O=C(c1cccnc1N1CCOCC1)N1CCCC(n2ccnc2)C1 (configuration not stated) , its cytotoxicity at 70.5 h was -6.03

// sample COCCOCC(=O)N1C[C@@H]2CC[C@H](Oc3ccccc3Cl)[C@@H]2C1 , its cytotoxicity at 70.5 h was 0.895

// sample Cc1nc(NC2CCCC2)cc(C2CCN2C(=O)c2ccccc2)n1 (configuration not stated) , its cytotoxicity at 70.5 h was 14.2

// sample CC(C)NC(=O)[C@H]1C[C@@H]2CN(C(=O)NCc3ccccc3)C[C@H]1O2 , its cytotoxicity at 70.5 h was -7.91

// sample COc1cncc(-n2nc(C)c(CC(C)=O)c2C)c1 , its cytotoxicity at 70.5 h was 0.266

// sample CC(C)S(=O)(=O)c1ccccc1C(=O)NCC1Cc2ccccc2O1 (configuration not stated) , its cytotoxicity at 70.5 h was -1.85

// sample CS(=O)(=O)N1CC2(CCN(CC3CCCCC3)CC2)Cc2ccccc21 , its cytotoxicity at 70.5 h was 29.9

// sample CNc1ccc(C(=O)N(C)Cc2ccc3ccccc3n2)cn1 , its cytotoxicity at 70.5 h was -8.44

// sample O=C(O)c1ccccc1C1CCN(Cc2ccc(-c3cc[nH]n3)o2)C1 (configuration not stated) , its cytotoxicity at 70.5 h was -2.33

// sample O=C(Cc1ccc(F)cc1)NCc1ccc(C(=O)O)o1 , its cytotoxicity at 70.5 h was -2.52

// sample CNS(=O)(=O)Cc1cccc(CNC(=O)Nc2cn[nH]c2)c1 , its cytotoxicity at 70.5 h was -4.03
